target: hGIPR (Homo sapiens); assay: Functional cAMP activation in the presence of 0.1% casein (no HSA); type: cell-based; settings: in the presence of 0.1% casein (no HSA); geometric mean; read-out: Relative cAMP EC50, hGIPR;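 further: intracellular cAMP rise after 30 min at 37 °C read by HTRF against a standard curve, scaled between buffer alone (0%) and top control ligand concentration (100%), four-parameter fit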
Sequence (P48546 22-466): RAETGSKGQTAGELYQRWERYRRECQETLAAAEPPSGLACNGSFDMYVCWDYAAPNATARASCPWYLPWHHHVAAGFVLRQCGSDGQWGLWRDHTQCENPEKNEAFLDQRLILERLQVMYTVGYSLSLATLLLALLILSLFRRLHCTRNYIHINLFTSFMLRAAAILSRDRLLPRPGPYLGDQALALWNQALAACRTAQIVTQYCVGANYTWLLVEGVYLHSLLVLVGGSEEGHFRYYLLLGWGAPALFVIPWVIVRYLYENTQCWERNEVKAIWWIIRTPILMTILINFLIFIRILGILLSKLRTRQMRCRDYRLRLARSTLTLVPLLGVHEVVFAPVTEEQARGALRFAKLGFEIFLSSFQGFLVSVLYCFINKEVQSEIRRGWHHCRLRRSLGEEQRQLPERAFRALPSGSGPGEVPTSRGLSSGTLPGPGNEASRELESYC
Starred links: 1 amine or outer side, 2 acyl side, 3 side chain; linkers in the order of their positions; H or OH if unused. Non-standard residues stand in square brackets, D forms with d. Groups on a side chain read outwards from the residue. *: point of attachment. C18 diacid = O=C(O)CCCCCCCCCCCCCCCCC(=O)*; γGlu = O=C(O)[C@H](CCC(=O)[*:2])N[*:1]; αMe4Pal = C[C@](N)(Cc1ccncc1)C(=O)O; αMeY = C[C@](N)(Cc1ccc(O)cc1)C(=O)O; 4Pal = N[C@@H](Cc1ccncc1)C(=O)O; αMeL = CC(C)C[C@](C)(N)C(=O)O; αMeS = C[C@](N)(CO)C(=O)O; Orn = NCCC[C@H](N)C(=O)O; AEEA = NCCOCCOCC(=O)O; Aib = CC(C)(N)C(=O)O
List of pEC50 values.
In textbook form, pEC50 equals minus log to base ten of the concentration in mol/L.

# annotated cases, reported pEC50 shown
- Substance: "H-Y[Aib]QGTFTSDFS[Orn][αMeL]LDKK([AEEA-γGlu-C18 diacid])AQ[Aib]AFIEYLLEGGPSSGAPPPGGQ-NH2 [Example 159]"
  pEC50: 9.46
- Substance: "H-Y[Aib]QGTFTSDFS[Orn][αMeL]LDKK([AEEA-γGlu-C18 diacid])AQ[Aib]AFIEYLLE[Aib]GPSS[Aib]APPPSGS-NH2 [Example 238]"
  pEC50: 10.04

Now consider a different substance.
# pEC50 (substance: H-Y[Aib]QGTFTSD[4Pal][αMeS]Q[αMeL]LD[Orn]K([dE-γGlu-C18 diacid])AQ[αMe4Pal]QFIQ[αMeY]LIE[Aib]GPSSGEPPPSGGGE-NH2 [Example 1183] ) is 10.32
